target.desc: T1, hNPR1-ANP complex (human, UniProt P01160 124-151, limits assumed)
T1 construct: hNPR1 antigen in the presence of ANP; also called hNPR1 + 100 nM ANP
T1 sequence: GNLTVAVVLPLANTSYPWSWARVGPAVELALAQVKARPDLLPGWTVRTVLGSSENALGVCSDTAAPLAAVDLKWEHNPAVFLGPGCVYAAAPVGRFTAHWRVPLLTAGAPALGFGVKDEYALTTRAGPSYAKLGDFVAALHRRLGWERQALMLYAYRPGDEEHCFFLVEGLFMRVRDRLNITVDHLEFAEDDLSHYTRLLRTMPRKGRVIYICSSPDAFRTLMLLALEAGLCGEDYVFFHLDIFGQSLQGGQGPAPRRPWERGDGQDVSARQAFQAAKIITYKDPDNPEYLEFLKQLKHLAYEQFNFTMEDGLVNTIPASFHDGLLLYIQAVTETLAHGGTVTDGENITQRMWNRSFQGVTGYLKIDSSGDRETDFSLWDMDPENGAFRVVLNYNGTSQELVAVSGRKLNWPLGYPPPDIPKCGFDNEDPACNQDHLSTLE
T1 sequence (peptide): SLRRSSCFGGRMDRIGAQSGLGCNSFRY
assay.remarks: SET, FabCys
quantity: Kd (nM)
Numbers only, in nM.

These solved cases illustrate the format of a correct answer.
{"columns": ["binder", "Kd, nM"],
 "data": [
  ["XX07 (FabCys format) (Fab, V domains shown, Monovalent FabCys) VH: QVQLLESGGGLVQPGGSLRLSCAASGFTFSSYWMNWVRQAPGKGLEWVSAISSDGSYTYYADSVKGRFTISRDNSKNTLYLQMNSLRAEDTAVYYCARDRYSMIYSYGAGAFDYWGQGTLVTVSS VL: DIQMTQSPSSLSASVGDRVTITCRASQGISSYLAWYQQKPGKAPKLLIYTASTLQSGVPSRFSGSGSGTDFTLTISSLQPEDFATYYCQQIWTVPRTFGQGTKVEIK", 0.2],
  ["XX04 (FabCys format) (Fab, V domains shown, Monovalent FabCys) VH: QVQLLESGGGLVQPGGSLRLSCAASGFTFSSYWMNWVRQAPGKGLEWVSAISSDGSYTYYADSVKGRFTISRDNSKNTLYLQMNSLRAEDTAVYYCARDRYSMIYSYGAGAFDYWGQGTLVTVSS VL: DIQMTQSPSSLSASVGDRVTITCRASQGISSYLAWYQQKPGKAPKLLIYTASTLQSGVPSRFSGSGSGTDFTLTISSLQPEDFATYYCQQEWVKPRTFGQGTKVEIK", 0.1],
  ["XX12 (FabCys format) (Fab, V domains shown, Monovalent FabCys) VH: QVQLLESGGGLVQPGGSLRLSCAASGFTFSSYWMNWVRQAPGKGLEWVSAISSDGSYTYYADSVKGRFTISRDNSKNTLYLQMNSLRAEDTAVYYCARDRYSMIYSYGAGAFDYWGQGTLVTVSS VL: DIQMTQSPSSLSASVGDRVTITCRASQGISSYLAWYQQKPGKAPKLLIYTASTLQSGVPSRFSGSGSGTDFTLTISSLQPEDFATYYCQQIWMAPRTFGQGTKVEIK", 0.2],
  ["XX01 (FabCys format) (Fab, V domains shown, Monovalent FabCys) VH: EVQLLESGGGLVQPGGSLRLSCAASGFTFNTHYIHWVRQAPGKGLEWVSSISSSGQSTYYADSVKGRFTISRDNSKNTLYLQMNSLRAEDTAVYYCARERGYVYYHMFDPWGQGTLVTVSS VL: DIVLTQSPATLSLSPGERATLSCRASQSITRNYLAWYQQKPGQAPRLLIYGASSRATGIPARFSGSGSGTDFTLTISSLEPEDFAVYYCQQHSMYPRTFGQGTKVEIK", 0.3]
]}

Provide each entry's Kd from the list below.
1. XX08 (FabCys format) (Fab, V domains shown, Monovalent FabCys) VH: EVQLLESGGGLVQPGGSLRLSCAASGFTFNTHYIHWVRQAPGKGLEWVSSIGGQGGMTLYADSVKGRFTISRDNSKNTLYLQMNSLRAEDTAVYYCARERGYVYYHMFDPWGQGTLVTVSS VL: DIVLTQSPATLSLSPGERATLSCRASQSITRNYLAWYQQKPGQAPRLLIYGASSRATGIPARFSGSGSGTDFTLTISSLEPEDFAVYYCQQHSMYPRTFGQGTKVEIK
2. XX03 (FabCys format) (Fab, V domains shown, Monovalent FabCys) VH: EVQLLESGGGLVQPGGSLRLSCAASGFTFSSYWMNWVRQAPGKGLEWVSVIESKGNYIFYADSVKGRFTISRDNSKNTLYLQMNSLRAEDTAVYYCARDRYSMIYSYGAGAFDYWGQGTLVTVSS VL: DIQMTQSPSSLSASVGDRVTITCRASQGISSYLAWYQQKPGKAPKLLIYTASTLQSGVPSRFSGSGSGTDFTLTISSLQPEDFATYYCMQSYEKPRTFGQGTKVEIK
3. XX06 (FabCys format) (Fab, V domains shown, Monovalent FabCys) VH: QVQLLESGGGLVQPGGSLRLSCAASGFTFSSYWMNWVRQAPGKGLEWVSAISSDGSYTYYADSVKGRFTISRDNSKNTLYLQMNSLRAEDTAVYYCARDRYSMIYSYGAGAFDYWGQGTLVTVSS VL: DIQMTQSPSSLSASVGDRVTITCRASQGISSYLAWYQQKPGKAPKLLIYTASTLQSGVPSRFSGSGSGTDFTLTISSLQPEDFATYYCQQTWRKPRTFGQGTKVEIK

0.3
0.2
0.1
